Measured IC50 (BTK (WT) (Homo sapiens, UniProt Q06187))

// solved cases for IC50 follow
{"columns": ["Compound", "Result"],
 "data": [
  ["C=CC(=O)N1CCOc2ccc(-c3csc4c(=O)cc(N5CCOCC5)oc34)cc21 [Compound 7]", "< 1 µM"],
  ["C=CC(=O)N1CCOc2ccc(-c3csc4c(=O)cc(N5CCN(C(=O)OC(C)(C)C)CC5)oc34)cc21 [Compound 4]", "< 1 µM"],
  ["N#C/C(=C\\C1CC1)C(=O)Nc1cccc(-c2csc3c(=O)cc(N4CCOCC4)oc23)c1 [Compound 11]", "10 to 30 µM"],
  ["O=c1cc(N2CCOCC2)oc2c(-c3ccc4c(c3)OCCO4)csc12 [Compound 0, reference compound]", "10 to 30 µM"],
  ["C=CS(=O)(=O)Nc1cccc(-c2csc3c(=O)cc(N4CCOCC4)oc23)c1 [II-18]", "< 1 µM"]
]}

Attention now shifts to the item below.
Give the observed IC50 of C=CC(=O)Nc1cc(OC)cc(-c2csc3c(=O)cc(N4CCOCC4)oc23)c1 [Compound 8] for BTK (WT) (Homo sapiens, UniProt Q06187).
< 1 µM

----------
# Target under test: PI3K δ (Homo sapiens, UniProt O00329)
# Construct: (contract assay)
# Sequence (O00329 whole entry): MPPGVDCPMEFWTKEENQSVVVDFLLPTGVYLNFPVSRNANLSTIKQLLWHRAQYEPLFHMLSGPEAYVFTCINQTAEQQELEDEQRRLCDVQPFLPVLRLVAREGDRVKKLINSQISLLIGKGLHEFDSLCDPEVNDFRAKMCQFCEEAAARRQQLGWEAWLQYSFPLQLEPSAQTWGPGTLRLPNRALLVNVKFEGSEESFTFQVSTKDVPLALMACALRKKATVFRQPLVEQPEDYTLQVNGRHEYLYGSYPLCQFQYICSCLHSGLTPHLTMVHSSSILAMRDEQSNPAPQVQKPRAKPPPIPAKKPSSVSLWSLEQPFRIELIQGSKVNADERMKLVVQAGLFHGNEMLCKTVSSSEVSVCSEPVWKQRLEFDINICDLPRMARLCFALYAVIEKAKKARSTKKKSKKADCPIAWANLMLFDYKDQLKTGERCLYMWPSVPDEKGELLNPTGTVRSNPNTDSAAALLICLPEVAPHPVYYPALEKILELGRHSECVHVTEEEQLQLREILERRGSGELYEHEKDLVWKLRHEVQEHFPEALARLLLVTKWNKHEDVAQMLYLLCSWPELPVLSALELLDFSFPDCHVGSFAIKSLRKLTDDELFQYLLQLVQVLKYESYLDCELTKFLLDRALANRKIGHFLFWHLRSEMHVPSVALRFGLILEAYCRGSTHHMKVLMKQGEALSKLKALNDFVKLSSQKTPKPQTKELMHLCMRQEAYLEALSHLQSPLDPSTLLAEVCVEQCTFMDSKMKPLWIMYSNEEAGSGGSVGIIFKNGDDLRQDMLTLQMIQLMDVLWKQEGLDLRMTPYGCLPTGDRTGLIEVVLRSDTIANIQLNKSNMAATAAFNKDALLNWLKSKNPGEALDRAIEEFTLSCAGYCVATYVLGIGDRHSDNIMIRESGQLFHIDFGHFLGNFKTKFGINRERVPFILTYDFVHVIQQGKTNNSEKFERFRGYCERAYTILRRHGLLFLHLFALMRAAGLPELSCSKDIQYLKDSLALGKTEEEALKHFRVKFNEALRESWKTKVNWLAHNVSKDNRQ
# Sequence (P27986 whole entry partner): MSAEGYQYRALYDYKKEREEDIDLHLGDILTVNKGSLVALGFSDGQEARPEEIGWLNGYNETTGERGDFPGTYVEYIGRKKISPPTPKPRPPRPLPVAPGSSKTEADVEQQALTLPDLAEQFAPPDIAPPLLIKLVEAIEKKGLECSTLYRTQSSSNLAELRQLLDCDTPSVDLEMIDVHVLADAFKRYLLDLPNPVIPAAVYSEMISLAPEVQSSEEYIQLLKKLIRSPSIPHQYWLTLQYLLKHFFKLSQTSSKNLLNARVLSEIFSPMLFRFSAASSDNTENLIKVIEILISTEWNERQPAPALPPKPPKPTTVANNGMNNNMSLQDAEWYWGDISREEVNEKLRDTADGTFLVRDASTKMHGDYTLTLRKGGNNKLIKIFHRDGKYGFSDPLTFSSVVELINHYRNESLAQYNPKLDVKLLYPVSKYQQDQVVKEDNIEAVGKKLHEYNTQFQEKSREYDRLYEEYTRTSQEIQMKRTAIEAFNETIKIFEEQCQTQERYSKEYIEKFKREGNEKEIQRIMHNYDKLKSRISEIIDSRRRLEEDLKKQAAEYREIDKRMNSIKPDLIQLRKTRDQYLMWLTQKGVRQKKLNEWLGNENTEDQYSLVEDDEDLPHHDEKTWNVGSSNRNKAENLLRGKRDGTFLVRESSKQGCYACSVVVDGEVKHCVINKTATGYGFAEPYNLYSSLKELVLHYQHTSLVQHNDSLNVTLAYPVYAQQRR
# Assay overview: PI3K delta inhibition (Thermo Fisher Scientific)
# Stated conditions: 10-point curve; read-out: Target IC50 PI3K δ
Recorded metric: IC50

{"columns": ["Cpd smiles", "Target under test", "IC50"],
 "data": [
  ["C=CS(=O)(=O)N1CCOc2ccc(-c3csc4c(=O)cc(N5CCOCC5)oc34)cc21", "PI3K δ (Homo sapiens, UniProt O00329)", "< 1 µM"]
]}

Attention now shifts to the item below.
Give the observed IC50 of CCCCC/C=C/C(=O)Nc1cccc(-c2csc3c(=O)cc(N4CCOCC4)oc23)c1 for PI3K δ (Homo sapiens, UniProt O00329).
1 to 10 µM

----------
# Test system: Mino cells
# Assay overview: Cell viability (Celltiter-Glo), Mino
# Type: cell-based
# Stated conditions: Homo sapiens, 48 hours
Recorded metric: IC50

{"columns": ["Compound", "Target under test", "IC50"],
 "data": [
  ["C=CC(=O)Nc1cccc(-c2csc3c(=O)cc(N4CCOCC4)oc23)c1 [Compound 1]", "Mino cells", "< 1000 nM"]
]}

// Input: O=c1cc(N2CCOCC2)oc2c(-c3ccc4c(c3)OCCO4)csc12 [Compound 0, reference compound] . Output its IC50 only.
< 1000 nM

// Input: C=CC(=O)Nc1ccc(-c2csc3c(=O)cc(N4CCOCC4)oc23)cc1 [Compound 13] . Output its IC50 only.
< 1000 nM

// Input: C=CC(=O)N1CCC[C@@H](n2nc(-c3ccc(Oc4ccccc4)cc3)c3c(N)ncnc32)C1 [Ibrutinib] . Output its IC50 only.
1000 to 10000 nM

// Input: C=CC(=O)N1CCOc2ccc(-c3csc4c(=O)cc(N5CCOCC5)oc34)cc21 [Compound 7] . Output its IC50 only.
< 1000 nM

----------
# Target under test: BTK (C481S) (Homo sapiens, UniProt Q06187, C481S)
# Construct: purchased Reaction Biology Corp., Malvern, Pa; (contract assay)
# Sequence (Q06187 whole entry C481S): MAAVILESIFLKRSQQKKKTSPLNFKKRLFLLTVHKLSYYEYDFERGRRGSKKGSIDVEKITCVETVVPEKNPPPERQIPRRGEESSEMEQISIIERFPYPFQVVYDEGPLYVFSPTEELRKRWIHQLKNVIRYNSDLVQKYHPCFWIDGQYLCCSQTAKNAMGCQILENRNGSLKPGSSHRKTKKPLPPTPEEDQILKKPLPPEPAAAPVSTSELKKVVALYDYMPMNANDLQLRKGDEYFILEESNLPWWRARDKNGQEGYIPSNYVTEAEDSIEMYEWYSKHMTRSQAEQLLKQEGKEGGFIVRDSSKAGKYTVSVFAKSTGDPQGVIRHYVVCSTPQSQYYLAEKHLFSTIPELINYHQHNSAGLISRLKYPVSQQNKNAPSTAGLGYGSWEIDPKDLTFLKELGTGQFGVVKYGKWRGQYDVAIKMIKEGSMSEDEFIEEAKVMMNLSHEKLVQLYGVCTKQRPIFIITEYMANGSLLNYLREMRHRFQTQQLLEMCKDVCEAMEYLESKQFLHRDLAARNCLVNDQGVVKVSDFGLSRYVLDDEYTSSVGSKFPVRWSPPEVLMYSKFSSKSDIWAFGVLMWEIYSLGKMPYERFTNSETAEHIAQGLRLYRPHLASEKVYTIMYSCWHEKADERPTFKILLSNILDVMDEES
# Assay overview: BTK cysteine mutant C481S inhibition (Reaction Biology Corp.)
# Assay type: biochemical
# Stated conditions: ratio of the BTK IC50 values, C481S over wild-type
# Method: Compounds of the invention were analyzed for their ability to inhibit target proteins in vitro. PI3K alpha, gamma, and delta inhibition activity was determined by Thermo Fisher Scientific-Biosciences Life Sciences Solutions, Madison, Wis. The bromodomain protein inhibition (binding domain 1 and 2 of BRD4) was determined at Reaction Biology Corp., Malvern, Pa. BTK inhibition was performed by Reaction Biology Corp., Malvern, Pa. […]
Quick list: Ratio C481S/WT per entry.
Give a plain numeric answer without units written out.

// solved cases for Ratio C481S/WT follow
{"columns": ["Cpd smiles", "Ratio C481S/WT"],
 "data": [
  ["C=CC(=O)Nc1cccc(-c2csc3c(=O)cc(N4CCNCC4)oc23)c1.O=C(O)C(F)(F)F", 24.5],
  ["C=CC(=O)N1CCOc2ccc(-c3csc4c(=O)cc(N5CCN(C(=O)OC(C)(C)C)CC5)oc34)cc21", 212],
  ["C=CC(=O)N1CCOc2ccc(-c3csc4c(=O)cc(N5CCOCC5)oc34)cc21", 728],
  ["C=CC(=O)N1CCOc2ccc(-c3csc4c(=O)cc(N5CCN(C)CC5)oc34)cc21", 11.2],
  ["C=CS(=O)(=O)N1CCOc2ccc(-c3csc4c(=O)cc(N5CCOCC5)oc34)cc21", 1402]
]}

Attention now shifts to the item below.
// Input: C=CC(=O)Nc1cccc(-c2csc3c(=S)cc(N4CCOCC4)oc23)c1 . Output its Ratio C481S/WT only.
8.1

----------
# Target under test: BTK (C481S) (Homo sapiens, UniProt Q06187, C481S)
# Construct: (contract assay)
# Assay overview: BTK cysteine mutant C481S inhibition (Reaction Biology Corp.)
# Stated conditions: 10-point curve; read-out: Target IC50 BTK (C481S)
pIC50: −log10 of the molar value.
Recorded metric: pIC50

// solved cases for pIC50 follow
{"columns": ["Compound", "Recorded metric", "Result"],
 "data": [
  ["C=CC(=O)N1CCOc2ccc(-c3csc4c(=O)cc(N5CCN(C)CC5)oc34)cc21 [Compound 6]", "pIC50", "5.00 to 6.00"],
  ["C=CC(=O)N1CCOc2ccc(-c3csc4c(=O)cc(N5CCOCC5)oc34)cc21 [Compound 7]", "pIC50", "4.52 to 5.00"],
  ["C=CC(=O)Nc1cccc(-c2csc3c(=S)cc(N4CCOCC4)oc23)c1 [Compound 2]", "pIC50", "4.52 to 5.00"]
]}

Attention now shifts to the item below.
// Input: C=CC(=O)N1CCOc2ccc(-c3csc4c(=O)cc(N5CCN(C(=O)OC(C)(C)C)CC5)oc34)cc21 [Compound 4] . Output its pIC50 only.
4.52 to 5.00

----------
# Target under test: BTK (C481S) (Homo sapiens, UniProt Q06187, C481S)
# Construct: (contract assay)
# Assay overview: BTK cysteine mutant C481S inhibition (Reaction Biology Corp.)
# Stated conditions: 10-point curve; read-out: Target IC50 BTK (C481S)
Recorded metric: IC50

{"columns": ["Compound", "Result"],
 "data": [
  ["C=CS(=O)(=O)Nc1cccc(-c2csc3c(=O)cc(N4CCOCC4)oc23)c1 [II-18]", "< 1 µM"]
]}

// Input: O=c1cc(N2CCOCC2)oc2c(-c3ccc4c(c3)OCCO4)csc12 [Compound 0, reference compound] . Output its IC50 only.
10 to 30 µM

// Input: C=CC(=O)Nc1cccc(-c2csc3c(=O)cc(N4CCNCC4)oc23)c1.O=C(O)C(F)(F)F [Compound 3] . Output its IC50 only.
30 to 50 µM

// Input: C=CC(=O)N1CCOc2ccc(-c3csc4c(=O)cc(N5CCNCC5)oc34)cc21 [Compound 5] . Output its IC50 only.
10 to 30 µM

// Input: N#C/C(=C\C1CC1)C(=O)Nc1cccc(-c2csc3c(=O)cc(N4CCOCC4)oc23)c1 [Compound 11] . Output its IC50 only.
10 to 30 µM

// Input: CC#CC(=O)Nc1cccc(-c2csc3c(=O)cc(N4CCOCC4)oc23)c1 [Compound 12] . Output its IC50 only.
10 to 30 µM

// Input: C=CC(=O)Nc1cc(OC)cc(-c2csc3c(=O)cc(N4CCOCC4)oc23)c1 [Compound 8] . Output its IC50 only.
> 50 µM

// Input: C=CS(=O)(=O)N1CCOc2ccc(-c3csc4c(=O)cc(N5CCOCC5)oc34)cc21 [Compound 21] . Output its IC50 only.
< 1 µM

----------
# Target under test: BRD4-1 (binding domain 1 of BRD4) (Homo sapiens)
Quick list: IC50 per entry.

// solved cases for IC50 follow
{"columns": ["Compound", "Recorded metric", "Result"],
 "data": [
  ["C=CC(=O)Nc1cccc(-c2csc3c(=O)cc(N4CCOCC4)oc23)c1", "IC50", "< 1000 nM"],
  ["C=CC(=O)N1CCOc2ccc(-c3csc4c(=O)cc(N5CCNCC5)oc34)cc21", "IC50", "< 1000 nM"]
]}

Attention now shifts to the item below.
// Input: O=c1cc(N2CCOCC2)oc2c(-c3ccc4c(c3)OCCO4)csc12 [Compound 0, reference compound] . Output its IC50 only.
< 1000 nM

----------
Measured pIC50 (BRD4-2 (binding domain 2 of BRD4) (Homo sapiens, UniProt O60885))
pIC50: −log10 of the molar value.

// solved cases for pIC50 follow
{"columns": ["Compound", "Target under test", "Result"],
 "data": [
  ["C=CC(=O)N1CCOc2ccc(-c3csc4c(=O)cc(N5CCN(C(=O)OC(C)(C)C)CC5)oc34)cc21", "BRD4-2 (binding domain 2 of BRD4) (Homo sapiens, UniProt O60885)", "5.00 to 6.00"],
  ["C=CC(=O)Nc1cccc(-c2csc3c(=O)cc(N4CCNCC4)oc23)c1.O=C(O)C(F)(F)F", "BRD4-2 (binding domain 2 of BRD4) (Homo sapiens, UniProt O60885)", "5.00 to 6.00"]
]}

// Input: N#C/C(=C\C1CC1)C(=O)Nc1cccc(-c2csc3c(=O)cc(N4CCOCC4)oc23)c1 . Output its pIC50 only.
> 6.00

// Input: C=CC(=O)N1CCOc2ccc(-c3csc4c(=O)cc(N5CCNCC5)oc34)cc21 . Output its pIC50 only.
5.00 to 6.00

// Input: CC#CC(=O)Nc1cccc(-c2csc3c(=O)cc(N4CCOCC4)oc23)c1 . Output its pIC50 only.
> 6.00

Where do the numbers come from? From patent US20210300939A1.
